tested on: S. enterica typhimurium WT; test: growth AUC normalised to DMSO control (median) (fraction of control); higher = less growth inhibition, active = hit call of the paper; conditions: 20 µM
Structures can show the parent of a compound that is named as a salt.
Measured growth AUC normalised to DMSO control accompanies every entry in the list below.
Please give the numeric answer without any surrounding text.

[
  {
    "Compound": "OCCN1CCN(CCCN2c3ccccc3C=Cc3ccccc32)CC1 [Opipramol dihydrochloride]",
    "growth AUC normalised to DMSO control": 1
  },
  {
    "Compound": "CCC(C)n1ncn(-c2ccc(N3CCN(c4ccc(OCC5COC(Cn6cncn6)(c6ccc(Cl)cc6Cl)O5)cc4)CC3)cc2)c1=O (stereo unspecified)",
    "growth AUC normalised to DMSO control": 1.02
  }
]

Noted for CC(C)(C)C(=O)OCOC(=O)[C@@H]1N2C(=O)[C@@H](NC(=O)[C@H](N)c3ccccc3)[C@H]2SC1(C)C : its growth AUC normalised to DMSO control reads 0.993

Noted for CC(=O)Nc1ccc(OC(=O)c2ccccc2O)cc1 : its growth AUC normalised to DMSO control reads 1

* * *

Measured growth AUC normalised to DMSO control accompanies every entry in the list below.
tested on: P. vulgatus WT; assay: growth AUC normalised to DMSO control (median) (fraction of control); higher = less growth inhibition, active = hit call of the paper; conditions: 20 µM
Structures can show the parent of a compound that is named as a salt.
Please give the numeric answer without any surrounding text.

Reported growth AUC normalised to DMSO control (P. vulgatus WT) for entry COC(=O)C1=C(C)NC(C)=C(C(=O)OCCN2CCN(C(c3ccccc3)c3ccccc3)CC2)C1c1cccc([N+](=O)[O-])c1 (centres undefined) [Manidipine Dihydrochloride] is 1.02

* * *

test system: S. enterica typhimurium WT; test: growth AUC normalised to DMSO control (median) (fraction of control); higher = less growth inhibition, active = hit call of the paper; conditions: 20 µM
Counter-ions that a name gives are not always drawn.
Measured growth AUC normalised to DMSO control accompanies every entry in the list below.
Please give the numeric answer without any surrounding text.

Previously resolved entries follow.
[
  {
    "Molecule": "CC(C)(C)NC[C@H](O)COc1cccc2c1CCCC2=O [(-) Levobunolol hydrochloride]",
    "growth AUC normalised to DMSO control": 0.995
  },
  {
    "Molecule": "CO[C@H]1/C=C/O[C@@]2(C)Oc3c(C)c(O)c4c(O)c(c5c(nc6cc(C)ccn65)c4c3C2=O)NC(=O)/C(C)=C\\C=C\\[C@H](C)[C@H](O)[C@@H](C)[C@@H](O)[C@@H](C)[C@H](OC(C)=O)[C@@H]1C",
    "growth AUC normalised to DMSO control": 0.217
  },
  {
    "Molecule": "CCCC(CCC)C(=O)O[C@H]1C[C@H]2CC[C@@H](C1)[N+]2(C)C [Anisotropine Methylbromide]",
    "growth AUC normalised to DMSO control": 0.997
  },
  {
    "Molecule": "CCCCCN(C)CCC(O)(P(=O)(O)O)P(=O)(O)O [Ibandronate sodium]",
    "growth AUC normalised to DMSO control": 0.99
  }
]

Noted for CN(C(=O)CN(CCO)CC(=O)N(C)C(C)(C)Cc1ccccc1)C(C)(C)Cc1ccccc1 : its growth AUC normalised to DMSO control reads 1.01

Noted for Cc1cc(C(=O)NNCc2ccccc2)no1 : its growth AUC normalised to DMSO control reads 0.998

Noted for COc1cc2/c(=N/c3ccc(Br)cc3F)nc[nH]c2cc1OCC1CCN(C)CC1 : its growth AUC normalised to DMSO control reads 1.02

* * *

test system: Yersinia pseudotuberculosis; assay: growth AUC normalised to DMSO control (fraction of control); higher = less growth inhibition, active = hit call of the paper; conditions: 20 µM
Structures can show the parent of a compound that is named as a salt.
Attribute Measured: growth AUC normalised to DMSO control
Please give the numeric answer without any surrounding text.

Previously resolved entries follow.
[
  {
    "Molecule": "O=C(O)c1cc(/N=N/c2ccc(S(=O)(=O)Nc3ccccn3)cc2)ccc1O [Sulfasalazine]",
    "Result Number": 0.99
  },
  {
    "Molecule": "Cc1cnc(NC(=O)C2=C(O)c3ccccc3S(=O)(=O)N2C)s1 [Meloxicam]",
    "Result Number": 1
  },
  {
    "Molecule": "Fc1ccc(C(c2ccc(F)cc2)N2CCN(C/C=C/c3ccccc3)CC2)cc1 [Flunarizine dihydrochloride]",
    "Result Number": 1.02
  }
]

Noted for CC1=C(/C=C/C(C)=C/C=C/C(C)=C\C(=O)O)C(C)(C)CCC1 [Isotretinoin] : its growth AUC normalised to DMSO control reads 1

Noted for CC(CCc1ccccc1)NCC(O)c1ccc(O)c(C(N)=O)c1 (stereo not drawn) [Labetalol hydrochloride] : its growth AUC normalised to DMSO control reads 0.988

Noted for CN(C)CCN(Cc1ccc(Cl)cc1)c1ccccn1 [Chloropyramine hydrochloride] : its growth AUC normalised to DMSO control reads 1.02

Noted for CCN(CC)C(C)CN1c2ccccc2Sc2ccccc21 (stereo not drawn) [Ethopropazine hydrochloride] : its growth AUC normalised to DMSO control reads 0.995

Noted for C=CCc1ccccc1OCC(O)CNC(C)C (stereo not drawn) [Alprenolol hydrochloride] : its growth AUC normalised to DMSO control reads 1.01

* * *

test system: P. vulgatus RND KO; assay: growth AUC normalised to DMSO control (median) (fraction of control); higher = less growth inhibition, active = hit call of the paper; conditions: 20 µM
Where a name gives a salt, the structure may show the parent alone.
Attribute Measured: growth AUC normalised to DMSO control
Please give the numeric answer without any surrounding text.

[
  {
    "Compound": "COc1cccc2c1C(=O)c1c(O)c3c(c(O)c1C2=O)C[C@@](O)(C(C)=O)C[C@@H]3O[C@H]1C[C@H](N)[C@H](O)[C@H](C)O1 [Daunorubicin hydrochloride]",
    "Result Number": 0.865
  },
  {
    "Compound": "Cc1cc(=O)n(-c2ccccc2)n1C [Antipyrine]",
    "Result Number": 1
  },
  {
    "Compound": "Cn1ccnc1S",
    "Result Number": 0.996
  },
  {
    "Compound": "CN(C)CCCN1c2ccccc2CCc2ccccc21 [Imipramine hydrochloride]",
    "Result Number": 1
  }
]

Could you now look at the following compound, please?
Reported growth AUC normalised to DMSO control (P. vulgatus RND KO) for entry NC[C@H]1CC[C@H](C(=O)O)CC1 is 1.04

* * *

test system: P. vulgatus WT; assay: growth AUC normalised to DMSO control (median) (fraction of control); higher = less growth inhibition, active = hit call of the paper; details: 20 µM
Where a name gives a salt, the structure may show the parent alone.
Attribute Measured: growth AUC normalised to DMSO control
Please give the numeric answer without any surrounding text.

Previously resolved entries follow.
[
  {
    "Compound": "O=C(Nc1cccc2c(=O)cc(-c3nnn[nH]3)oc12)c1ccc(OCCCCc2ccccc2)cc1 [Pranlukast]",
    "Target Under Test": "P. vulgatus WT",
    "growth AUC normalised to DMSO control": 0.957
  },
  {
    "Compound": "CC(c1cc2ccccc2s1)N(O)C(N)=O (stereo not drawn) [Zileuton]",
    "Target Under Test": "P. vulgatus WT",
    "growth AUC normalised to DMSO control": 0.985
  },
  {
    "Compound": "NC1CCN(c2c(F)cc3c(=O)c(C(=O)O)cn(C4CC4)c3c2Cl)C1 (stereo not drawn) [Clinafloxacin]",
    "Target Under Test": "P. vulgatus WT",
    "growth AUC normalised to DMSO control": 0.0148
  },
  {
    "Compound": "Cc1c(O)cccc1C(=O)N[C@@H](CSc1ccccc1)[C@H](O)CN1C[C@H]2CCCC[C@H]2C[C@H]1C(=O)NC(C)(C)C [Nelfinavir mesylate]",
    "Target Under Test": "P. vulgatus WT",
    "growth AUC normalised to DMSO control": 0.954
  },
  {
    "Compound": "CN(C)CCCOc1nn(Cc2ccccc2)c2ccccc12 [Benzydamine hydrochloride]",
    "Target Under Test": "P. vulgatus WT",
    "growth AUC normalised to DMSO control": 1.01
  },
  {
    "Compound": "COc1ccc(C2CNC(=O)C2)cc1OC1CCCC1 (stereo not drawn) [Rolipram]",
    "Target Under Test": "P. vulgatus WT",
    "growth AUC normalised to DMSO control": 1.02
  },
  {
    "Compound": "CSc1ccc2c(c1)N(CCC1CCCCN1C)c1ccccc1S2 (stereo not drawn) [Thioridazine hydrochloride]",
    "Target Under Test": "P. vulgatus WT",
    "growth AUC normalised to DMSO control": 0.796
  },
  {
    "Compound": "C=C(CC)C(=O)c1ccc(OCC(=O)O)c(Cl)c1Cl [Ethacrynic acid]",
    "Target Under Test": "P. vulgatus WT",
    "growth AUC normalised to DMSO control": 1.01
  }
]

Noted for O=C(O)Cc1ccccc1Oc1ccc(Cl)cc1Cl [Fenclofenac] : its growth AUC normalised to DMSO control reads 1.05

Noted for Nc1ccc(S(=O)(=O)NC(=O)c2ccccc2)cc1 [Sulfabenzamide] : its growth AUC normalised to DMSO control reads 1.1

Noted for CCCNC(C)(C)C(=O)Nc1ccccc1C [Quatacaine] : its growth AUC normalised to DMSO control reads 1.03

Noted for COc1ccc2c(c1)N(C[C@H](C)CN(C)C)c1ccccc1S2 [Methotrimeprazine maleate salt] : its growth AUC normalised to DMSO control reads 1.02

Noted for CNC1(C)C2CCC(C2)C1(C)C (stereo not drawn) [Mecamylamine hydrochloride] : its growth AUC normalised to DMSO control reads 1.09

Noted for COc1ccc2[nH]c([S+]([O-])Cc3ncc(C)c(OC)c3C)nc2n1 (stereo not drawn) [Tenatoprazole] : its growth AUC normalised to DMSO control reads 1.06
